target: Dihydroorotate dehydrogenase (Helicobacter pylori); assay: Inhibition of dihydroorotate dehydrogenase (DHODase) of Helicobacter pylori
Mark class 1 only for Ki values smaller than 90 nM; exact matches and larger values are class 0.

>>> class_name("COc1ccc(-n2nc(C(=O)NCc3cccnc3)cc2C(=O)Nc2ccccc2)cc1")
"class 1"
>>> class_name("Cc1ccc(CNC(=O)c2cc(C(=O)Nc3ccccc3)n(-c3ccc(Cl)cc3)n2)cc1")
"class 1"
>>> class_name("COc1ccc(-n2nc(C(=O)NCc3ccccc3)cc2C(=O)Nc2ccc(C(=O)N3CCCC3)cc2)cc1")
"class 1"
>>> class_name("NC(=O)c1ccc(NC(=O)c2cc(C(=O)NCc3ccccc3)nn2-c2ccc(Cl)cc2)cc1")
"class 1"
>>> class_name("O=C(NCc1ccccc1)c1cc(C(=O)Nc2ccccc2)n(-c2ccc(Cl)cc2)n1")
"class 1"
>>> class_name("COc1ccc(-n2nc(C(=O)NCC3CCCO3)cc2C(=O)Nc2ccc(C(=O)N3CCCC3)cc2)cc1 (stereo unspecified)")
"class 0"
>>> class_name("COc1ccc(-n2nc(C(=O)NC(c3ccccc3)c3ccccc3)cc2C(=O)NCc2ccccc2)cc1")
"class 0"
>>> class_name("O=C(NCc1cccnc1)c1cc(C(=O)Nc2ccc(N3CCCCC3)cc2)n(-c2ccc(Cl)cc2)n1")
"class 1"
>>> class_name("O=C(NCc1cccnc1)c1cc(C(=O)Nc2ccccc2)n(-c2ccc(Cl)cc2)n1")
"class 1"
>>> class_name("COc1ccc(-n2nc(C(=O)NCC(C)C)cc2C(=O)Nc2ccc(C(=O)N3CCCC3)cc2)cc1")
"class 0"
